# reported IC50; entries follow
# target: Bet BRD4 full length bromo-domain protein (Homo sapiens)
# measurement.protocol: Bet bromodomain TR-FRET assay (displacement of acetyl histone peptide)
# Format: binding
# condition.summary: Bet BRD4 full length bromodomain protein, 300 nM acetyl histone peptide substrate, read-out: IC50

COc1ccccc1S(=O)(=O)Nc1cc(NC2=CC(=O)NCC2)c2c(c1)C1(CCC1)C(=O)N2 ... < 600 nM
CN1CCC(NC(=O)c2cc(NC(=O)c3ccc(F)cc3F)cc3c2NC(=O)C32CCC2)CC1 ... > 1000 nM
CN1CCc2ccc(-c3cc(NS(=O)(=O)c4ccc(F)cc4F)cc4c3NC(=O)C43CCC3)cc2C1=O ... 600 to 1000 nM
COc1ccccc1S(=O)(=O)Nc1cc(N)c2c(c1)C1(CCC1)C(=O)N2 ... < 600 nM
COc1ccccc1S(C)(=O)=Nc1cc(N)c2c(c1)C1(CCC1)C(=O)N2 (stereo not drawn) ... > 1000 nM

Now for a further molecule.
molecule "COc1ccccc1S(=O)(=O)Nc1cc(B(O)O)c2c(c1)C1(CCC1)C(=O)N2" , IC50 observed: > 1000 nM
